Reference source: paper PMC8000227

Assay: Cytotoxicity assay (XTT) in TZM-GFP cells
Assay type: cell-based
Conditions: human, mean ± SD, read-out: CC50 (concentration of compound causing 50% cell death)
ENDPOINT: CC50 at 72 h

>>> result("O=C(Cn1ncc2ccccc21)N[C@H](Cc1ccccc1)c1ncccc1-c1cccc2cn[nH]c12")
"> 50 µM"

Task: What value of CC50 at 72 h has been recorded for this entry: `COc1ccc2[nH]cc(CC(=O)N[C@@H](Cc3ccccc3)c3nccn3-c3ccc(I)cc3)c2c1`
Output: > 100 µM

Task: So what does the record say about CC50 at 72 h for `Cc1[nH]c2ccccc2c1CC(=O)N[C@@H](Cc1ccccc1)C(=O)N1CCc2ccccc21` ?
Output: > 100 µM

Task: # query: CC50 at 72 h of entry `O=C(Cn1cccn1)N[C@@H](Cc1ccccc1)c1ncccc1-c1ccccc1`
Output: > 50 µM

Task: What measured CC50 at 72 h goes with `CCn1cc(CC(=O)N[C@@H](Cc2ccccc2)c2ncccc2-c2ccc(Br)cc2)c2ccccc21` ?
Output: 41 µM
